Experiment: Toxicity liver stage against HepG2, at 10uM
Assay type: cell-based
Set-up: test concentration 10 uM, cell line HepG2-A16-CD81EGFP
Conditions: human, HepG2-A16-CD81EGFP cells; read-out: INHIBITION
Please provide measured cytotoxicity at 10 µM for the entries that follow.
Express your answer in %, writing the number without its unit.

Name the recorded cytotoxicity at 10 µM for COc1ccccc1N1CCC(CNC(=O)CN2CSCC2=O)C1 (stereo unspecified) . -1.33

Name the recorded cytotoxicity at 10 µM for `CCCn1cnnc1CNCc1c[nH]nc1-c1ccc(F)cc1` . 2.69

Name the recorded cytotoxicity at 10 µM for `CC(C)(C)NCc1nn(Cc2ccccc2)nc1-c1ccccc1` . 11.9

Name the recorded cytotoxicity at 10 µM for `O=S(=O)(NCc1ccccc1)NCc1nc(-c2ccncc2)n[nH]1` . 14.3

Name the recorded cytotoxicity at 10 µM for `O=C(NCCOCC(F)(F)F)c1ccc(-c2ccccc2)[nH]c1=O` . -13.9

Name the recorded cytotoxicity at 10 µM for `N#Cc1cccnc1N1CCC(OCCc2ccccc2)CC1` . -11

Name the recorded cytotoxicity at 10 µM for `Cc1cccc(CN2CC[C@@H]3[C@@H]2CCN3C(=O)c2cc(C)on2)n1` . -0.762

Name the recorded cytotoxicity at 10 µM for CCOC(C)c1nc(CN2CCC(NC(C)C)CC2)cs1 (stereo unspecified) . 1.1

Name the recorded cytotoxicity at 10 µM for `COC(=O)CCNC(=O)c1coc(COc2ccc(F)cc2)n1` . -4.1

Name the recorded cytotoxicity at 10 µM for `CNS(=O)(=O)CC(=O)NCc1cc2c(s1)CCCCC2` . 2.42

Name the recorded cytotoxicity at 10 µM for `CCc1cccc(NS(=O)(=O)c2cc(C)c(C(=O)O)s2)c1` . -1.23

All figures here come from ChEMBL document CHEMBL4513216.
